Values compiled from ChEMBL document CHEMBL1287644.

Can you tell me inhibition (INH) for the items I'm about to list?
# System: Rattus norvegicus
# protocol description: Antiinflammatory activity in rat air pouch model assessed as inhibition of carrageenan-induced PGE2 production administered 1 hr before carrageenan challenge
# Type: functional

1. CCc1cc(OC(F)(F)F)cc2c1O[C@H](C(F)(F)F)C(C(=O)O)=C2
>72%
2. CCCc1cc(OC(F)(F)F)cc2c1O[C@H](C(F)(F)F)C(C(=O)O)=C2
>68%

Incoming: Which inhibition (INH) is reported for this compound? Cc1cc(OC(F)(F)F)cc2c1O[C@H](C(F)(F)F)C(C(=O)O)=C2
Outgoing: >68%
